assay: recombinant UMI read abundance after kanamycin selection (control-corrected) (log10(CPM+1)); higher = more efficient recombination; extreme values may be limits of the assay; sequences stand for … in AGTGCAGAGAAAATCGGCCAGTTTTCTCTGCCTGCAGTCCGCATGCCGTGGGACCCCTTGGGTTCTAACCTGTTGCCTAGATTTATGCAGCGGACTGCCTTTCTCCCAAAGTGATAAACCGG…AGGTTGGTTTCACT; site = the 11-nt donor;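 note: IS621 bridge recombinase in Escherichia coli cells against a fixed T5 target plasmid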
Label scheme for recombinant UMI read abundance (log10): lower than 0.3 is criterion not met, 0.3 and above is criterion met.

Some solved cases for reference:
Problem: Kindly determine if recombinant UMI read abundance (log10) recorded for TAGTAATCATGGACCGGTTTTCCCGGTAATCCGTATTTGCG (site TAGGAATCTCG) is above or exactly 0.3.
Result: criterion met

Problem: Kindly determine if recombinant UMI read abundance (log10) recorded for GATTATCCATGGACCGGTTTTCCCGGTAATCCGTATTTGCC (site GATTATCCTAG) is above or exactly 0.3.
Result: criterion not met

Problem: Kindly determine if recombinant UMI read abundance (log10) recorded for TAATTCCCATGGACCGGTTTTCCCGGTAATCCGTATTTGCT (site GAATTCCCTAG) is above or exactly 0.3.
Result: criterion met

Problem: Kindly determine if recombinant UMI read abundance (log10) recorded for CGTGGAACATGGACCGGTTTTCCCGGTAATCCGTATTTGAT (site CGTGGAACTAC) is above or exactly 0.3.
Result: criterion not met

Problem: Kindly determine if recombinant UMI read abundance (log10) recorded for CTGGAAACATGGACCGGTTTTCCCGGTAATCCGTATTTGCA (site CTCGAAACTTG) is above or exactly 0.3.
Result: criterion not met

Problem: Kindly determine if recombinant UMI read abundance (log10) recorded for GAATGGCCATGGACCGGTTTTCCCGGTAATCCGTATTTGCG (site GAATGGCCTGG) is above or exactly 0.3.
Result: criterion not met

Problem: Kindly determine if recombinant UMI read abundance (log10) recorded for CAATGCTCATGGACCGGTTTTCCCGGTAATCCGTATTTGAT (site CAATGCTCTGT) is above or exactly 0.3.
Result: criterion met

Problem: Kindly determine if recombinant UMI read abundance (log10) recorded for TGGACCTCATGGACCGGTTTTCCCGGTAATCCGTATTTGAG (site TGGACCTCTCT) is above or exactly 0.3.
Result: criterion met

---
Problem: Kindly determine if recombinant UMI read abundance (log10) recorded for ATGTAAGCATGGACCGGTTTTCCCGGTAATCCGTATTTGGC (site ATGTAGGCTGC) is above or exactly 0.3.
Result: criterion met

Problem: Kindly determine if recombinant UMI read abundance (log10) recorded for GGGCCTACATGGACCGGTTTTCCCGGTAATCCGTATTTGGG (site GGGCCTACTCC) is above or exactly 0.3.
Result: criterion not met

Problem: Kindly determine if recombinant UMI read abundance (log10) recorded for TCATGACCATGGACCGGTTTTCCCGGTAATCCGTATTTGCC (site TCATGACCTGG) is above or exactly 0.3.
Result: criterion not met

Problem: Kindly determine if recombinant UMI read abundance (log10) recorded for GCCTCCCCATGGACCGGTTTTCCCGGTAATCCGTATTTGGA (site GCCTCCCCTTC) is above or exactly 0.3.
Result: criterion not met

Problem: Kindly determine if recombinant UMI read abundance (log10) recorded for CCTCTCTCATGGACCGGTTTTCCCGGTAATCCGTATTTGTA (site CGTCTCTCTTA) is above or exactly 0.3.
Result: criterion not met

Problem: Kindly determine if recombinant UMI read abundance (log10) recorded for AAGCCCGCATGGACCGGTTTTCCCGGTAATCCGTATTTGGG (site AAGCGCGCTCC) is above or exactly 0.3.
Result: criterion not met

Problem: Kindly determine if recombinant UMI read abundance (log10) recorded for TTCGACTCATGGACCGGTTTTCCCGGTAATCCGTATTTGTT (site TTCGACTCTAA) is above or exactly 0.3.
Result: criterion met

Problem: Kindly determine if recombinant UMI read abundance (log10) recorded for GAAAAGGCATGGACCGGTTTTCCCGGTAATCCGTATTTGTC (site GAAAAGGCTGA) is above or exactly 0.3.
Result: criterion met

Problem: Kindly determine if recombinant UMI read abundance (log10) recorded for CCGTTCTCATGGACCGGTTTTCCCGGTAATCCGTATTTGGA (site CCGTTCTCTTC) is above or exactly 0.3.
Result: criterion not met

Taken from the supplement of paper PMC11208160.
